Catalogue of Inhibition values
Tested on: Staphylococcus aureus
Settings: Concentration 32 ug.mL-1; ASSAY_TEST Inhibition of Bacterial Growth; detection method Absorption (OD600); MEDIA CAMHB; plate type 384well; NBS; CORNING #3640; time 18 hr
Description: Antibacterial activity against Staphylococcus aureus MRSA ATCC 43300 (CO-ADD:GP_020); MIC in CAMBH media, using NBS plates, by OD(600)
Results with a measured potency or affinity are listed apart.
MEASUREMENT_NAME: Inhibition (%)

1. C#CCNc1nc(NCCC2CCN(Cc3ccccc3)CC2)c(C#N)cc1C#N: -4.51
2. CCCCNNC(=O)c1cc2ccccc2[nH]1: 0.71
3. C#CCN1CCc2nc3nc(NC4CCN(Cc5ccccc5)CC4)c(C#N)cc3c(N)c2C1: 26.68
4. C#CCN(C)c1nc(Cl)c(C#N)c(-c2ccccc2)c1C#N: 13.59
5. COc1ccc(CNNC(=O)c2cc3ccccc3[nH]2)cc1O: 5.63
6. Cc1nn(-c2ccccc2)c2ncnc(Nc3ccccc3)c12: 6.52
